Exercise: state measured target mRNA knockdown for each of the substances provided.
# condition description: siRNA; further: test system not given here
HELM strings list units from the 5' end as sugar, base in round brackets, then linkage (d deoxyribose, r ribose, m 2'-O-methyl, p phosphodiester). Strings are as the collection lists them, not checked against the first reports. ss, as = sense and antisense strand; [s4r] = 4'-thioribose; [fl2r] = 2'-fluoro
One number for each entry, in %.

Here are 5 substances together with their reported answers.
INSERT INTO measurements (substance, readout_label, observed_result) VALUES
  ('RNA1{r(G)p.m(C)p.r(A)p.r(G)p.r(A)p.r(G)p.r(A)p.r(A)p.r(U)p.r(C)p.m(U)p.r(A)p.r(C)p.r(C)p.r(U)p.r(U)p.r(U)p.r(C)p.r(C)p.r(T)p.r(T)}|RNA2{r(G)p.r(G)p.r(A)p.r(A)p.r(A)p.r(G)p.r(G)p.m(U)p.r(A)p.r(G)p.r(A)p.r(U)p.r(U)p.r(C)p.r(U)p.r(C)p.m(U)p.r(G)p.r(C)p.r(T)p.r(T)}$$$RNA1{StrandType:ss}|RNA2{StrandType:as}$', 'target mRNA knockdown', 75),
  ('RNA1{r(U)p.r(C)p.[fl2r](C)p.r(A)p.r(A)p.r(G)p.r(C)p.r(U)p.r(U)p.r(C)p.r(C)p.r(U)p.r(C)p.r(G)p.r(U)p.[fl2r](U)p.[fl2r](G)p.r(G)p.r(U)p.r(T)p.r(T)}|RNA2{r(A)p.r(C)p.[fl2r](C)p.[fl2r](A)p.r(A)p.r(C)p.r(G)p.r(A)p.r(G)p.r(G)p.r(A)p.r(A)p.r(G)p.r(C)p.r(U)p.[fl2r](U)p.r(G)p.r(G)p.r(A)p.r(T)p.r(T)}$$$RNA1{StrandType:ss}|RNA2{StrandType:as}$', 'target mRNA knockdown', 65),
  ('RNA1{[fl2r](A)p.r(A)p.[fl2r](A)p.r(C)p.[fl2r](C)p.r(A)p.[fl2r](G)p.r(G)p.[fl2r](A)p.r(A)p.[fl2r](G)p.r(G)p.[fl2r](G)p.r(G)p.[fl2r](A)p.r(A)p.[fl2r](A)p.r(U)p.[fl2r](C)p.r(T)p.r(T)}|RNA2{r(G)p.[fl2r](A)p.r(U)p.r(U)p.r(U)p.r(C)p.r(C)p.r(C)p.r(C)p.r(U)p.r(U)p.r(C)p.r(C)p.r(U)p.r(G)p.r(G)p.r(U)p.r(U)p.r(U)p.r(T)p.r(T)}$$$RNA1{StrandType:ss}|RNA2{StrandType:as}$', 'target mRNA knockdown', 42),
  ('RNA1{r(A)p.r(G)p.r(C)p.r(U)p.r(C)p.r(U)p.r(U)p.m(U)p.r(G)p.r(U)p.m(C)p.r(A)p.r(C)p.m(C)p.r(U)p.m(C)p.r(U)p.r(C)p.r(U)p.r(T)p.r(T)}|RNA2{r(A)p.r(G)p.r(A)p.r(G)p.r(A)p.r(G)p.r(G)p.m(U)p.r(G)p.r(A)p.m(C)p.r(A)p.r(A)p.r(A)p.r(G)p.r(A)p.r(G)p.r(C)p.r(U)p.r(T)p.r(T)}$$$RNA1{StrandType:ss}|RNA2{StrandType:as}$', 'target mRNA knockdown', 34),
  ('RNA1{r(G)p.m(U)p.r(A)p.r(U)p.r(C)p.r(C)p.r(G)p.r(A)p.r(A)p.m(G)p.m(A)p.r(C)p.r(G)p.r(A)p.r(A)p.r(G)p.r(C)p.m(U)p.r(A)p.r(T)p.r(T)}|RNA2{m(U)p.r(A)p.r(G)p.r(C)p.r(U)p.r(U)p.r(C)p.r(G)p.r(U)p.r(C)p.r(U)p.r(U)p.r(C)p.r(G)p.r(G)p.r(A)p.m(U)p.r(A)p.r(C)p.r(T)p.r(T)}$$$RNA1{StrandType:ss}|RNA2{StrandType:as}$', 'target mRNA knockdown', 92);

Give target mRNA knockdown for all substances that follow.
1. RNA1{r(G)p.r(G)p.m(U)p.m(A)p.r(G)p.r(A)p.r(A)p.m(U)p.r(A)p.r(G)p.r(G)p.r(U)p.r(U)p.r(U)p.r(U)p.r(C)p.r(C)p.r(C)p.r(C)p.r(T)p.r(T)}|RNA2{r(G)p.r(G)p.r(G)p.r(G)p.r(A)p.r(A)p.r(A)p.r(A)p.r(C)p.r(C)p.m(U)p.r(A)p.r(U)p.r(U)p.r(C)p.m(U)p.r(A)p.r(C)p.r(C)p.r(T)p.r(T)}$$$RNA1{StrandType:ss}|RNA2{StrandType:as}$
2. RNA1{r(A)p.r(G)p.r(A)p.r(G)p.r(U)p.r(U)p.r(G)p.r(G)p.r(G)p.r(A)p.r(U)p.r(U)p.r(A)p.r(G)p.r(G)p.r(G)p.r(C)p.r(U)p.r(U)p.r(T)p.r(T)}|RNA2{r(A)p.r(A)p.r(G)p.r(C)p.r(C)p.r(C)p.m(U)p.r(A)p.r(A)p.r(U)p.r(C)p.r(C)p.r(C)p.r(A)p.r(A)p.r(C)p.r(U)p.r(C)p.r(U)p.r(T)p.r(T)}$$$RNA1{StrandType:ss}|RNA2{StrandType:as}$
3. RNA1{r(A)p.r(A)p.r(C)p.r(C)p.r(C)p.r(A)p.r(C)p.r(C)p.r(A)p.r(C)p.r(A)p.r(G)p.r(C)p.m(U)p.m(A)p.r(G)p.r(A)p.r(A)p.r(C)p.m(U)p.m(U)}|RNA2{r(A)p.r(A)p.r(G)p.r(U)p.r(U)p.r(C)p.m(U)p.m(A)p.r(G)p.r(C)p.r(U)p.r(G)p.r(U)p.r(G)p.r(G)p.r(U)p.r(G)p.r(G)p.r(G)p.r(U)p.r(U)}$$$RNA1{StrandType:ss}|RNA2{StrandType:as}$
4. RNA1{r(C)p.r(G)p.r(U)p.r(A)p.r(C)p.r(G)p.r(C)p.r(G)p.r(G)p.r(A)p.r(A)p.r(U)p.r(A)p.r(C)p.r(U)p.r(U)p.r(C)p.r(G)p.r(A)p.r(T)p.r(T)}|RNA2{[s4r](U)p.[s4r](C)p.[s4r](G)p.[s4r](A)p.r(A)p.r(G)p.r(U)p.r(A)p.r(U)p.r(U)p.r(C)p.r(C)p.r(G)p.r(C)p.r(G)p.r(U)p.r(A)p.r(C)p.r(G)p.r(T)p.r(T)}$$$RNA1{StrandType:ss}|RNA2{StrandType:as}$

## Result
45
69
51
76.7

----------
# condition description: siRNA
HELM strings list units from the 5' end as sugar, base in round brackets, then linkage (d deoxyribose, r ribose, m 2'-O-methyl, p phosphodiester). Strings are as the collection lists them, not checked against the first reports. ss, as = sense and antisense strand; [s4r] = 4'-thioribose; [fl2r] = 2'-fluoro
readout label: target mRNA knockdown (%)
One number for each entry, in %.

Here are 4 substances together with their reported answers.
INSERT INTO measurements (substance, observed_result) VALUES
  ('RNA1{[fl2r](G)p.r(C)p.[fl2r](U)p.r(G)p.[fl2r](U)p.r(A)p.[fl2r](A)p.r(C)p.[fl2r](C)p.r(U)p.[fl2r](C)p.r(G)p.[fl2r](G)p.r(A)p.[fl2r](G)p.r(A)p.[fl2r](G)p.r(U)p.r(U)p.r(T)p.r(T)}|RNA2{r(A)p.r(A)p.r(C)p.r(U)p.r(C)p.r(U)p.r(C)p.r(C)p.r(G)p.r(A)p.r(G)p.r(G)p.r(U)p.r(U)p.r(A)p.r(C)p.r(A)p.r(G)p.r(C)p.r(T)p.r(T)}$$$RNA1{StrandType:ss}|RNA2{StrandType:as}$', 51),
  ('RNA1{r(C)p.r(G)p.r(U)p.r(A)p.r(C)p.r(G)p.r(C)p.r(G)p.r(G)p.r(A)p.r(A)p.r(U)p.r(A)p.[s4r](C)p.[s4r](U)p.[s4r](U)p.[s4r](C)p.[s4r](G)p.[s4r](A)p.r(T)p.r(T)}|RNA2{r(U)p.r(C)p.r(G)p.r(A)p.r(A)p.r(G)p.r(U)p.r(A)p.r(U)p.r(U)p.r(C)p.r(C)p.r(G)p.r(C)p.r(G)p.r(U)p.r(A)p.r(C)p.r(G)p.r(T)p.r(T)}$$$RNA1{StrandType:ss}|RNA2{StrandType:as}$', 93.8),
  ('RNA1{[s4r](C)p.[s4r](G)p.[s4r](U)p.[s4r](A)p.[s4r](C)p.[s4r](G)p.r(C)p.r(G)p.r(G)p.r(A)p.r(A)p.r(U)p.r(A)p.[s4r](C)p.[s4r](U)p.[s4r](U)p.[s4r](C)p.[s4r](G)p.[s4r](A)p.r(T)p.r(T)}|RNA2{r(U)p.r(C)p.r(G)p.r(A)p.r(A)p.r(G)p.r(U)p.r(A)p.r(U)p.r(U)p.r(C)p.r(C)p.r(G)p.r(C)p.r(G)p.[s4r](U)p.[s4r](A)p.[s4r](C)p.[s4r](G)p.r(T)p.r(T)}$$$RNA1{StrandType:ss}|RNA2{StrandType:as}$', 44.4),
  ('RNA1{r(A)p.r(A)p.r(A)p.r(G)p.r(G)p.r(G)p.r(G)p.r(A)p.r(G)p.r(U)p.m(U)p.r(G)p.r(C)p.m(U)p.r(G)p.r(G)p.r(A)p.r(A)p.r(G)p.r(T)p.r(T)}|RNA2{r(C)p.r(U)p.r(U)p.r(C)p.m(C)p.r(A)p.r(G)p.m(C)p.r(A)p.r(A)p.r(C)p.r(U)p.r(C)p.r(C)p.r(C)p.r(C)p.r(U)p.r(U)p.r(U)p.r(T)p.r(T)}$$$RNA1{StrandType:ss}|RNA2{StrandType:as}$', 74);

Pending substance:
## Task Entry `RNA1{[fl2r](A)p.r(A)p.[fl2r](G)p.r(G)p.[fl2r](C)p.r(C)p.[fl2r](A)p.r(A)p.[fl2r](C)p.r(C)p.[fl2r](G)p.r(A)p.[fl2r](U)p.r(A)p.[fl2r](C)p.r(U)p.[fl2r](U)p.r(C)p.[fl2r](U)p.r(T)p.r(T)}|RNA2{r(A)p.r(G)p.r(A)p.r(A)p.r(G)p.[fl2r](U)p.r(A)p.[fl2r](U)p.r(C)p.r(G)p.r(G)p.[fl2r](U)p.[fl2r](U)p.r(G)p.r(G)p.r(C)p.r(C)p.[fl2r](U)p.[fl2r](U)p.r(T)p.r(T)}$$$RNA1{StrandType:ss}|RNA2{StrandType:as}$` : reported target mRNA knockdown = ?
## Result 46

Measured values drawn from the OligoGym collection for this set.
